B1: PRPH (parent)
chain: DEIEFLKKLHEEELRDLQVSVESQ

variants of: B1; assay: protein stability index of a GFP-peptide fusion (GPS, HEK-293T) (PSI 1-6); higher = more stable; settings: c terminus: a fixed tail appended;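 further: lentivirally expressed fusions sorted by FACS into six bins by GFP to DsRed ratio, PSI derived from sequencing read proportions per bin multiplied by bin number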

>  <mutation.spec>
F5R

>  <protein stability index>
4.79

$$$$
>  <mutation.spec>
Q24T

>  <protein stability index>
4.76

$$$$
>  <mutation.spec>
L17V

>  <protein stability index>
5.02

$$$$
>  <mutation.spec>
L6Y

>  <protein stability index>
4.72

$$$$
>  <mutation.spec>
D16I

>  <protein stability index>
3.82

$$$$
>  <mutation.spec>
E2C

>  <protein stability index>
2.04

$$$$
>  <mutation.spec>
Q18T

>  <protein stability index>
5.36

$$$$
>  <mutation.spec>
Q18V

>  <protein stability index>
4.38

$$$$
>  <mutation.spec>
H10M

>  <protein stability index>
3.88

$$$$
>  <mutation.spec>
Q24M

>  <protein stability index>
4.64

$$$$
>  <mutation.spec>
L14Q

>  <protein stability index>
4.84

$$$$
